Source of measurements: ChEMBL document CHEMBL1140194

- Test system: Staphylococcus aureus
- run description: Antimicrobial activity against Staphylococcus aureus ATCC 25923 after 16 to 18 hrs by serial dilution method
- Format: functional
MIC: recorded values
recorded metric: MIC (µg/mL)

entry smiles | measured number
NC(=O)N/N=C/c1ccc([N+](=O)[O-])o1 | 0.25
Cc1ccc(C(=O)c2cn(-c3ccccc3)nc2-c2ccc([N+](=O)[O-])s2)cc1 | 0.25
Cc1ccc(-n2cc(C(=O)c3ccccc3)c(-c3ccc([N+](=O)[O-])s3)n2)cc1 | 0.25
COc1ccc(C(=O)c2cn(-c3ccccc3)nc2-c2ccc([N+](=O)[O-])s2)cc1 | 0.25
O=C(c1ccc(Cl)cc1)c1cn(-c2ccccc2)nc1-c1ccc([N+](=O)[O-])s1 | 0.125

---

MIC: recorded values
- System: Staphylococcus aureus
- run description: Antimicrobial activity against Staphylococcus aureus ATCC 25923 after 16 to 18 hrs by serial dilution method
- Type: functional
recorded metric: MIC (µg/mL)

entry smiles | measured on | measured number
Cc1ccc(-n2cc(C(=O)c3ccc(Cl)cc3)c(-c3ccc([N+](=O)[O-])s3)n2)cc1 | Staphylococcus aureus | 0.125
O=C(c1ccccc1)c1cn(-c2ccccc2)nc1-c1ccc([N+](=O)[O-])s1 | Staphylococcus aureus | 0.25
COc1ccc(-n2cc(C(=O)c3ccc(Cl)cc3)c(-c3ccc([N+](=O)[O-])s3)n2)cc1 | Staphylococcus aureus | 0.25
Cc1ccc(C(=O)c2cn(-c3ccc(C)cc3)nc2-c2ccc([N+](=O)[O-])s2)cc1 | Staphylococcus aureus | 0.125
